- studySystem: KRAS G12V (Homo sapiens, UniProt P01116+P62937, G12V)
- Sequence (P01116 1-169 isoform P01116-2 G12V limits assumed): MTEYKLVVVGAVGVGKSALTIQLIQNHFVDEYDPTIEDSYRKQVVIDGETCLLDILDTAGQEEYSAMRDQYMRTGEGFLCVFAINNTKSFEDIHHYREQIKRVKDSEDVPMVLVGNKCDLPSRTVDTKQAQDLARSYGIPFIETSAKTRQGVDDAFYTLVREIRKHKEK
- Sequence (P62937 whole entry): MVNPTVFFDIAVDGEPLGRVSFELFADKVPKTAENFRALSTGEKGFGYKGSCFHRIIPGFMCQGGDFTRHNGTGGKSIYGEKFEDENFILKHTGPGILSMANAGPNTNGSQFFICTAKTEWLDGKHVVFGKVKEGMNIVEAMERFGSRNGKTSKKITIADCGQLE
- assayRemarks: Disruption of BRAF RBD interaction with Ras (FRET / MOA assay, with Cyclophilin A)
- Type: biochemical
- protocolConditions: KRAS G12V; read-out: KRAS G12V FRET data IC50
observedProperty: IC50

CCn1c(-c2cc(N3CCN(C)CC3)cnc2[C@H](C)OC)c2c3cc(ccc31)-c1csc(n1)C[C@H](NC(C)=O)C(=O)N1CCC[C@H](N1)C(=O)OCC(C)(C)C2 (atropisomer, axis not shown) [Example A340]; > 10000 nM
C=CC(=O)N1CC[C@@H](N(C)C(=O)N(C)[C@H](C(=O)N[C@H]2Cc3nc(cs3)-c3ccc4c(c3)c(c(-c3cccnc3[C@H](C)OC)n4CC)CC(C)(C)COC(=O)[C@@H]3CCCN(N3)C2=O)C(C)C)C1; 100 to 1000 nM

Need IC50 for each of these molecules.
1. CCn1c(-c2cccnc2[C@H](C)OC)c2c3cc(ccc31)-c1csc(n1)C[C@H](NC(=O)[C@H](C(C)C)N(C)C(=O)N1CCN(C(=O)C3COC3)CC1)C(=O)N1CCC[C@H](N1)C(=O)OCC(C)(C)C2 (atropisomer, axis not shown)
2. C=CC(=O)N1CC[C@H](C(=O)N(C)[C@H](C(=O)N[C@H]2Cc3cc(O)cc(c3)-c3ccc4c(c3)c(c(-c3nccnc3COC)n4CC)CC(C)(C)COC(=O)[C@@H]3CCCN(N3)C2=O)C(C)C)C1
3. CCn1c(-c2cccnc2[C@H](C)OC)c2c3cc(ccc31)-c1cccc(c1)C[C@H](NC(=O)[C@@H](CN1CC[C@]3(CCN(C(=O)C#C[C@H]4COCCN4C)C3)C1=O)C(C)C)C(=O)N1CCCC(N1)C(=O)OCC(C)(C)C2 (some centres unmarked)
4. C=CS(=O)(=O)N1CC[C@H](C(=O)N(C)[C@H](C(=O)N[C@H]2Cc3nc(cs3)-c3ccc4c(c3)c(c(-c3cncnc3)n4CC)CC(C)(C)COC(=O)[C@@H]3CCCN(N3)C2=O)C(C)C)C1

Response line:
1: 100 to 1000 nM; 2: > 10000 nM; 3: 1000 to 10000 nM; 4: > 10000 nM

Need IC50 for each of these molecules.
1. CCn1c(-c2cccnc2[C@H](C)OC)c2c3cc(ccc31)-c1csc(n1)C[C@H](NC(=O)[C@H](C(C)C)N(C)C(=O)N1CCN(C(=O)CO)CC1)C(=O)N1CCC[C@H](N1)C(=O)OCC(C)(C)C2 (atropisomer, axis not shown)
2. CCn1c(-c2cccnc2[C@H](C)OC)c2c3cc(ccc31)-c1csc(n1)C[C@H](NC(=O)[C@H](C(C)C)N(C)C(=O)N1CC3(CCCO3)C1)C(=O)N1CCC[C@H](N1)C(=O)OCC(C)(C)C2 (atropisomer, axis not shown)

Response line:
1: 100 to 1000 nM; 2: 100 to 1000 nM

###

- studySystem: NRAS G12C (Homo sapiens, UniProt P01111+P62937, G12C)
- Sequence (P01111 whole entry G12C): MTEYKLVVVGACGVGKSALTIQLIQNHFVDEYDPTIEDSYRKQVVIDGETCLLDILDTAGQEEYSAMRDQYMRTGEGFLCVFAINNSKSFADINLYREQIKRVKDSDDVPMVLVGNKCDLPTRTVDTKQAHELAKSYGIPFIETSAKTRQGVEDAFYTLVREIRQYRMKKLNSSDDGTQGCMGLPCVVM
- Sequence (P62937 whole entry): as the sequence (P62937 whole entry) above
- assayRemarks: Disruption of BRAF RBD interaction with Ras (FRET / MOA assay, with Cyclophilin A)
- Type: biochemical
- protocolConditions: NRAS G12C; read-out: NRAS G12C FRET data IC50
Exercise: for every item that follows, state its recorded IC50.

CCn1c(-c2cccnc2[C@H](C)OC)c2c3cc(ccc31)-c1csc(n1)C[C@H](NC(=O)[C@H](C(C)C)N(C)C(=O)N1CC3(CC(N(C)CCO)C3)C1)C(=O)N1CCC[C@H](N1)C(=O)OCC(C)(C)C2 (atropisomer, axis not shown); 10 to 100 nM

Need IC50 for each of these compounds.
1. CCn1c(-c2cccnc2[C@H](C)OC)c2c3cc(ccc31)-c1cc(O)cc(c1)C[C@H](NC(=O)[C@H](C(C)C)N(C)C(=O)[C@@H]1C[C@H]1C)C(=O)N1CCC[C@H](N1)C(=O)OCC(C)(C)C2
2. CCn1c(-c2cccnc2[C@H](C)OC)c2c3cc(ccc31)-c1cccc(c1)C[C@H](NC(=O)[C@H](C(C)C)N(C)C(=O)[C@H]1CCN(C(=O)CN)C1)C(=O)N1CCC[C@H](N1)C(=O)OCC(C)(C)C2

Response line:
1: 10 to 100 nM; 2: 1000 to 10000 nM
